- test protocol: in vitro
- Type: cell-based
- measurement context: human, HepG2 or HepG2.117 cells, ATPlite, 3-days incubation (not marked with *), mean value
experimental endpoint: CC50 at 3 days

Given the compound CC(C)Nc1nc2c(c(=O)n1-c1ccc(C(=O)N3CCOCC3)cc1)C[C@@H](C)N(C(=O)c1ccc(Cl)c(C(F)(F)F)c1)C2 [Compound C649] , what is its reported CC50 at 3 days? > 50 µM

Same read-out for CNC(=O)c1ccc(-n2c(N(C)Cc3ccc4cnccc4c3)nc3c(c2=O)C[C@@H](C)N(C(=O)c2ccc(Cl)c(Cl)c2)C3)cc1 [Compound C544] ? 26.7 µM

Same read-out for CNC(=O)c1ccc([C@H](C)Nc2nc3c(c(=O)n2-c2ccc(C(=O)NC)cc2)C[C@@H](C)N(C(=O)c2ccc(Cl)c(Cl)c2)C3)cc1 (single isomer, unassigned) [Compound C530b] ? > 50 µM

Same read-out for CNC(=O)c1ccc(-n2c(NCc3ccc(-n4cncn4)cc3)nc3c(c2=O)C[C@@H](C)N(C(=O)c2ccc(Cl)c(Cl)c2)C3)cc1 [Compound C555] ? > 50 µM

Same read-out for CNC(=O)c1ccc(-n2c(NC(C)C)nc3c(c2=O)C[C@@H](C)N(C(=O)c2cc(F)c(Cl)cc2Cl)C3)cc1 [Compound C472] ? > 50 µM

Same read-out for CNC(=O)[C@H]1CC[C@H](n2c(N[C@@H](C)c3ccc(C(F)(F)F)cc3)nc3c(c2=O)C[C@@H](C)N(C(=O)c2ccc(Cl)c(Cl)c2)C3)CC1 [Compound C640] ? 5.2 µM

Same read-out for CNC(=O)c1ccc(-n2c(NC(C)C)nc3c(c2=O)C[C@@H](C)N(C(=O)c2ccc(Cl)c(Cl)c2)C3)c(C(C)C)c1 [Compound C420] ? 25 µM

Same read-out for CNC(=O)c1cc(-n2c(NC(C)C)nc3c(c2=O)C[C@@H](C)N(C(=O)c2ccc(Cl)c(C(F)(F)F)c2)C3)[nH]n1 [Compound C687] ? > 50 µM

Same read-out for CNC(=O)c1ccc(-n2c(N[C@@H](C)c3nccs3)nc3c(c2=O)C[C@@H](C)N(C(=O)c2ccc(Cl)c(Cl)c2)C3)cc1 (single isomer, unassigned) [Compound C434b] ? > 50 µM

Same read-out for CNC(=O)c1ccc(-n2c(NC(C)C)nc3c(c2=O)C[C@@H](C)N(C(=O)c2ccc(Br)cc2Cl)C3)cc1 [Compound C565] ? > 50 µM

Same read-out for CNC(=O)c1ccc(-n2c(NC(CC3CC3)c3ccccc3)nc3c(c2=O)C[C@@H](C)N(C(=O)c2ccc(Cl)c(Cl)c2)C3)cc1 (some centres unmarked) [Compound C437] ? 28.1 µM

Same read-out for CNC(=O)c1ccc(-n2c(NCc3cn(C)nn3)nc3c(c2=O)C[C@@H](C)N(C(=O)c2ccc(Cl)c(Cl)c2)C3)cc1 [Compound C469] ? > 50 µM

Same read-out for CNC(=O)c1ccc(-n2c(NC(C)C)nc3c(c2=O)C[C@@H](C)N(C(=O)c2ccc(Cl)c(OC(F)F)c2)C3)cc1 [Compound C679] ? > 50 µM

Same read-out for CNC(=O)c1ccc(-n2c(N[C@H](C)c3ccc(OC)c(F)c3)nc3c(c2=O)C[C@@H](C)N(C(=O)c2ccc(Cl)c(Cl)c2)C3)cc1 (single isomer, unassigned) [Compound C416a] ? > 50 µM

Same read-out for CNC(=O)c1ccc(-n2c(NC(C)(C)C3CC3)nc3c(c2=O)C[C@@H](C)N(C(=O)c2ccc(Cl)c(Cl)c2)C3)cc1 [Compound C396] ? 39.5 µM

Same read-out for CNC(=O)c1ccc(-n2c(NC(C)C)nc3c(c2=O)C[C@@H](C)N(C(=O)c2cc(F)cc(F)c2)C3)cc1 [Compound C502] ? > 50 µM

Same read-out for CNC(=O)c1ccc(-n2c(NC(C)c3cn(C)nn3)nc3c(c2=O)C[C@@H](C)N(C(=O)c2ccc(Cl)c(Cl)c2)C3)cc1 (some centres unmarked) [Compound C489] ? > 50 µM

Same read-out for CNC(=O)c1ccc(-n2c(N[C@@H](C)c3cnccn3)nc3c(c2=O)C[C@@H](C)N(C(=O)c2ccc(Cl)c(C(F)(F)F)c2)C3)cc1 (single isomer, unassigned) [Compound C665b] ? > 50 µM

Same read-out for CNC(=O)c1ccc(-n2c(NC(C)c3ccccc3OC(F)F)nc3c(c2=O)C[C@@H](C)N(C(=O)c2ccc(Cl)c(Cl)c2)C3)cc1 (some centres unmarked) [Compound C438] ? 31.2 µM

Same read-out for CNC(=O)c1ccc([C@@H](C)Nc2nc3c(c(=O)n2-c2ccc(NC(C)=O)cc2)C[C@@H](C)N(C(=O)c2ccc(Cl)c(Cl)c2)C3)cc1 (single isomer, unassigned) [Compound C528a] ? > 50 µM

Same read-out for CNC(=O)c1ccc(-n2c(NC(C)C)nc3c(c2=O)C[C@@H](C)N(C(=O)c2ccc(Br)cc2)C3)cc1 [Compound C563] ? > 50 µM

Same read-out for CNC(=O)c1ccc(-n2c(NC(C)C)nc3c(c2=O)C[C@@H](C)N(C(=O)c2cc4c(Br)cccc4[nH]2)C3)cc1 [Compound C569] ? 21.4 µM

Same read-out for CNC(=O)c1ccc(-n2c(N[C@@H](C)c3ccccc3)nc3c(c2=O)C[C@@H](C)N(C(=O)c2ccc(Cl)c(Cl)c2)C3)c(Cl)c1 (single isomer, unassigned) [Compound C386a] ? > 50 µM
